Where do the numbers come from? From patent US20110053997A1.

Each item that follows carries a reported solubility.
# protocol_text: physchem
# test_context: 1,4-dioxane, organic solvent or mixture, Solubility, solvent: 1,4-dioxane

Observe how each entry below is paired with its result.
[[record]]
molecule = "NCCc1c[nH]c(=S)n1[C@H]1COc2c(F)cc(F)cc2C1.O=C(O)C(O)C(O)C(=O)O [L-tartrate salt]"
reported = "< 1000 µg/mL"

[[record]]
molecule = "NCCc1c[nH]c(=S)n1[C@H]1COc2c(F)cc(F)cc2C1.O=C(O)CC(=O)O [malonate salt]"
reported = "< 1000 µg/mL"

[[record]]
molecule = "Cc1ccc(S(=O)(=O)O)cc1.NCCc1c[nH]c(=S)n1[C@H]1COc2c(F)cc(F)cc2C1 [tosylate salt]"
reported = "1000 µg/mL"


Note: attention shifts to another entry.
Quick one: give measured solubility for NCCc1c[nH]c(=S)n1[C@H]1COc2c(F)cc(F)cc2C1.O=C(O)/C=C/C(=O)O [fumarate salt] < 1000 µg/mL
